- Tested on: Ipomoea hederacea (IPOHE)
- TEST_DESCRIPTION: Post-emergence efficacy, Method B
- Format: in vivo
- EXPERIMENTAL_CONDITIONS: 360 h, read-out: Control of weed species after post-emergence application, IPOHE (100=total damage to plant; 0=no damage to plant)
Listing of entries alongside the reported pest or weed control at 1000 g/ha.

Below, 4 compounds whose answers are already recorded.
COMPOUND: N[C@H](CC[n+]1ccc(-c2ncccn2)cn1)C(=O)O [Compound A207, 2,2,2-trifluoroacetate]
SYSTEM_NAME: Ipomoea hederacea (IPOHE)
pest or weed control at 1000 g/ha: 100%
--
COMPOUND: Nc1ccnc(-c2cc[n+](CCC(=O)O)nc2)n1
SYSTEM_NAME: Ipomoea hederacea (IPOHE)
pest or weed control at 1000 g/ha: 20%
--
COMPOUND: O=C(O)CC[n+]1ccc(-c2cccnn2)cn1
SYSTEM_NAME: Ipomoea hederacea (IPOHE)
pest or weed control at 1000 g/ha: 40%
--
COMPOUND: O=C(O)CC[n+]1ccc(-c2ccncn2)cn1
SYSTEM_NAME: Ipomoea hederacea (IPOHE)
pest or weed control at 1000 g/ha: 100%

# evaluate next
// query Endpoint output: pest or weed control at 1000 g/ha of O=S(=O)([O-])CC[n+]1ccc(-c2cccnn2)cn1 . Value?
// result 80%

###

- Tested on: Echinochloa crus-galli (ECHCG)
- TEST_DESCRIPTION: Post-emergence efficacy, Method A
- Format: in vivo
- EXPERIMENTAL_CONDITIONS: Application rate 500 g/Ha; evaluated after 13 days; 100=total damage to plant, 0=no damage
Recorded Control of weed species after post-emergence application, ECHCG values for a group of molecules are listed next.
Output spec: single numeric token, no unit.

MOLECULE: Nc1cc(-c2cc[n+](CCC(=O)O)nc2)ccn1.O=C([O-])C(F)(F)F [Compound A210]
ASSAY_VALUE: 10

MOLECULE: O=C(O)C(O)C[n+]1ccc(-c2ccncn2)cn1.O=C([O-])C(F)(F)F (centres unmarked) [Compound A190]
ASSAY_VALUE: 60

// query Return Control of weed species after post-emergence application, ECHCG measured with Echinochloa crus-galli (ECHCG) given this molecule: O=C(O)CC[n+]1ccc(-c2ccnc(C(F)(F)F)c2)cn1.O=C([O-])C(F)(F)F [Compound A166]
// result 50

// query Identify the measured Control of weed species after post-emergence application, ECHCG of COP(=O)(C[n+]1ccc(-c2ccncn2)cn1)OC.O=S(=O)([O-])C(F)(F)F [Compound A237] for Echinochloa crus-galli (ECHCG).
// result 10

// query What value of Control of weed species after post-emergence application, ECHCG on Echinochloa crus-galli (ECHCG) does O=C(O)C(O)C[n+]1ccc(-c2ncccn2)cn1.O=C([O-])C(F)(F)F (centres unmarked) [Compound A180] have?
// result 70

// query Provide the documented Control of weed species after post-emergence application, ECHCG with Echinochloa crus-galli (ECHCG) as the system for O=C([O-])C(F)(F)F.O=P(O)(O)CCC[n+]1ccc(-c2ncccn2)cn1 [Compound A233]
// result 60

// query Query Control of weed species after post-emergence application, ECHCG on Echinochloa crus-galli (ECHCG) for O=C([O-])C(F)(F)F.O=P(O)(O)CC[n+]1ccc(-c2ncccn2)cn1 [Compound A198]
// result 80

// query Kindly state the measured Control of weed species after post-emergence application, ECHCG obtained for CC(CC(=O)O)[n+]1ccc(-c2ccncn2)cn1.O=C([O-])C(F)(F)F (centres unmarked) [Compound A172] with Echinochloa crus-galli (ECHCG).
// result 50

###

- Tested on: Echinochloa crus-galli (ECHCG)
- TEST_DESCRIPTION: Post-emergence efficacy, Method A
- Assay type: in vivo
- EXPERIMENTAL_CONDITIONS: Application rate 500 g/Ha; evaluated after 13 days; 100=total damage to plant, 0=no damage
RECORDED_ENDPOINT: Control of weed species after post-emergence application, ECHCG
// no unit string in output, number only

MOLECULE: N[C@@H](C[n+]1ccc(-c2ncccn2)cn1)C(=O)O [Compound A208, 2,2,2-trifluoroacetate]
SYSTEM_NAME: Echinochloa crus-galli (ECHCG)
ASSAY_VALUE: 30

MOLECULE: Nc1cc(-c2cc[n+](CCC(=O)O)nc2)ncn1.O=C([O-])C(F)(F)F
SYSTEM_NAME: Echinochloa crus-galli (ECHCG)
ASSAY_VALUE: 40

MOLECULE: O=S(=O)([O-])CC[n+]1ccc(-c2cccnc2)cn1
SYSTEM_NAME: Echinochloa crus-galli (ECHCG)
ASSAY_VALUE: 40

// query # Control of weed species after post-emergence application, ECHCG lookup, item Nc1cc(-c2cc[n+](CCC(=O)O)nc2)nc(N)n1.O=C([O-])C(F)(F)F
// result 50

// query Value lookup for Control of weed species after post-emergence application, ECHCG; key = CCOP(=O)(O)CCC[n+]1ccc(-c2ncccn2)cn1
// result 100

// query Requested read-out: Control of weed species after post-emergence application, ECHCG. Entry: O=C([O-])C(F)(F)F.OCCC[n+]1ccc(-c2ncccn2)cn1
// result 20

// query Query (molecule): Nc1nccc(-c2cc[n+](CCC(=O)O)nc2)n1.O=C([O-])C(F)(F)F ; field requested: Control of weed species after post-emergence application, ECHCG
// result 70

// query Control of weed species after post-emergence application, ECHCG lookup needed for Cc1c[n+](CCC(=O)O)ncc1-c1ncccn1.O=C([O-])C(F)(F)F , thanks.
// result 40

###

- Tested on: Lolium perenne (LOLPE)
- TEST_DESCRIPTION: Post-emergence efficacy, Method B
- Type: in vivo
- EXPERIMENTAL_CONDITIONS: 360 h, read-out: Control of weed species after post-emergence application, LOLPE (100=total damage to plant; 0=no damage to plant)
Documented pest or weed control at 1000 g/ha across a set of compounds
Write it as a number; the unit % goes unstated.

COMPOUND: O=C(O)CC[n+]1ccc(-c2ccncn2)cn1
SYSTEM_NAME: Lolium perenne (LOLPE)
UNIT_ABBREVIATION: %
pest or weed control at 1000 g/ha: 70

COMPOUND: Nc1ccnc(-c2cc[n+](CCC(=O)O)nc2)n1
SYSTEM_NAME: Lolium perenne (LOLPE)
UNIT_ABBREVIATION: %
pest or weed control at 1000 g/ha: 60

# input for lookup
// query Data request, read-out pest or weed control at 1000 g/ha, for N[C@H](CC[n+]1ccc(-c2ncccn2)cn1)C(=O)O [Compound A207, 2,2,2-trifluoroacetate]
// result 20

###

- Tested on: Echinochloa crus-galli (ECHCG)
- TEST_DESCRIPTION: Post-emergence efficacy, Method A
- Assay type: in vivo
- EXPERIMENTAL_CONDITIONS: Application rate 500 g/Ha; evaluated after 13 days; 100=total damage to plant, 0=no damage
RECORDED_ENDPOINT: Control of weed species after post-emergence application, ECHCG
Answer with a bare number; do not write a unit.

Some compounds with known Control of weed species after post-emergence application, ECHCG results, for comparison:
COMPOUND: N[C@H](CC[n+]1ccc(-c2ccncn2)cn1)C(=O)O
ASSAY_VALUE: 30
--
COMPOUND: O=C(O)CC[n+]1ccc(-c2ncc(Cl)c(=O)[nH]2)cn1 [Compound A161, 2,2,2-trifluoroacetate]
ASSAY_VALUE: 20

// query Find the measured Control of weed species after post-emergence application, ECHCG: item O=C(O)c1ccc(C[n+]2ccc(-c3ncccn3)cn2)cc1.O=C([O-])C(F)(F)F , target or system Echinochloa crus-galli (ECHCG).
// result 10

// query I'm curious: which Control of weed species after post-emergence application, ECHCG was measured for CCOP(=O)(CCC[n+]1ccc(-c2ncccn2)cn1)OCC.O=C([O-])C(F)(F)F tested on Echinochloa crus-galli (ECHCG)?
// result 0

// query Record lookup: for Echinochloa crus-galli (ECHCG), what Control of weed species after post-emergence application, ECHCG belongs to COC(=O)C(C)[n+]1ccc(-c2ncccn2)cn1.O=C([O-])C(F)(F)F (stereo not drawn) ?
// result 30

// query // map Cl.N[C@@H](CCC[n+]1ccc(-c2ncccn2)cn1)C(=O)O.[Cl-] to recorded Control of weed species after post-emergence application, ECHCG (system: Echinochloa crus-galli (ECHCG))
// result 100

// query Form: Entry = NC(=O)c1cnc(-c2cc[n+](CCC(=O)O)nc2)cn1 [Compound A202, 2,2,2-trifluoroacetate] | System = Echinochloa crus-galli (ECHCG) | Control of weed species after post-emergence application, ECHCG = ____
// result 80

// query Notebook: pull reported Control of weed species after post-emergence application, ECHCG for Echinochloa crus-galli (ECHCG), entry CC(C)(C[n+]1ccc(-c2ccncn2)cn1)C(=O)O.O=C([O-])C(F)(F)F
// result 60

// query // map N[C@@H](CC[n+]1ccc(-c2ncccn2)cn1)C(=O)O.O=C(O)C(F)(F)F.O=C([O-])C(F)(F)F to recorded Control of weed species after post-emergence application, ECHCG (system: Echinochloa crus-galli (ECHCG))
// result 70

Origin of the recorded values: patent US11618743B2
